B1: Activity-dependent neuroprotector homeobox protein, residues 770 to 810; numbered along this chain, Q9H2P0 (parent)
chain: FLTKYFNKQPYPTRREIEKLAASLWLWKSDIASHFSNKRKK

- Variants of: B1
- assay-comment: abundance fitness (aPCA) (normalised: wild type 0, dead -1); higher = more abundant; growth selection in yeast, the domain comes from the species named
- test-settings: Homo sapiens
Overview of recorded abundance fitness for various variants
assay-endpoint: abundance fitness

INSERT INTO results (mutation_notation, assay_endpoint, reading) VALUES
  ('P10T', 'abundance fitness', 0.011),
  ('T3H', 'abundance fitness', -0.325),
  ('Y11C', 'abundance fitness', 0.086),
  ('S33W', 'abundance fitness', -0.147),
  ('E16H', 'abundance fitness', -0.133),
  ('L24D', 'abundance fitness', -0.033),
  ('F35L', 'abundance fitness', -0.023),
  ('E16C', 'abundance fitness', 0.082),
  ('D30F', 'abundance fitness', -0.257),
  ('R14H', 'abundance fitness', -0.514),
  ('N37T', 'abundance fitness', -0.077),
  ('L24A', 'abundance fitness', -0.026),
  ('K40R', 'abundance fitness', -0.156),
  ('Q9A', 'abundance fitness', -0.269),
  ('L2E', 'abundance fitness', -1.06),
  ('R15H', 'abundance fitness', -0.384),
  ('H34Q', 'abundance fitness', -0.032),
  ('N37L', 'abundance fitness', 0.061),
  ('K40V', 'abundance fitness', -0.461),
  ('I17W', 'abundance fitness', 0.18),
  ('K4C', 'abundance fitness', -0.698),
  ('H34D', 'abundance fitness', -0.388),
  ('S23M', 'abundance fitness', -0.36),
  ('H34T', 'abundance fitness', -0.128),
  ('Y11F', 'abundance fitness', -0.182),
  ('A22Y', 'abundance fitness', -0.303),
  ('I17R', 'abundance fitness', -0.294),
  ('S36G', 'abundance fitness', 0.083),
  ('H34I', 'abundance fitness', 0.068),
  ('K28Y', 'abundance fitness', -0.443),
  ('W27T', 'abundance fitness', -0.152),
  ('K8S', 'abundance fitness', -0.995),
  ('K40P', 'abundance fitness', -0.28),
  ('K8M', 'abundance fitness', -0.639),
  ('Y11G', 'abundance fitness', 0.293),
  ('L2Y', 'abundance fitness', -0.248),
  ('W27E', 'abundance fitness', -0.74),
  ('P12Q', 'abundance fitness', -0.036),
  ('R14P', 'abundance fitness', -0.391),
  ('R15G', 'abundance fitness', -0.088),
  ('Q9L', 'abundance fitness', -0.149),
  ('L26M', 'abundance fitness', 0.115),
  ('I17S', 'abundance fitness', -0.455),
  ('P12E', 'abundance fitness', 0.059),
  ('S36D', 'abundance fitness', -0.159),
  ('N7M', 'abundance fitness', -0.76),
  ('I31S', 'abundance fitness', -0.154),
  ('K38S', 'abundance fitness', -0.183),
  ('D30G', 'abundance fitness', -0.025),
  ('K28D', 'abundance fitness', -0.514),
  ('I31T', 'abundance fitness', -0.061),
  ('P10V', 'abundance fitness', 0.062),
  ('W25N', 'abundance fitness', -0.021),
  ('T13D', 'abundance fitness', -0.26),
  ('D30Y', 'abundance fitness', -0.082),
  ('T13G', 'abundance fitness', 0.16),
  ('A21G', 'abundance fitness', 0.202),
  ('K19G', 'abundance fitness', -0.221),
  ('W25A', 'abundance fitness', 0.064),
  ('T13A', 'abundance fitness', 0.016),
  ('K28V', 'abundance fitness', 0.508),
  ('L26Q', 'abundance fitness', 0.122),
  ('P12D', 'abundance fitness', 0.092),
  ('A22V', 'abundance fitness', -0.344),
  ('F35D', 'abundance fitness', -0.157),
  ('W25K', 'abundance fitness', 0.361),
  ('K4S', 'abundance fitness', -0.749),
  ('K8C', 'abundance fitness', -1.11),
  ('Y11P', 'abundance fitness', -0.124),
  ('P10N', 'abundance fitness', 0.09),
  ('N37H', 'abundance fitness', -0.072),
  ('S29V', 'abundance fitness', -0.302),
  ('S29C', 'abundance fitness', -0.206),
  ('T3W', 'abundance fitness', -0.786),
  ('T13K', 'abundance fitness', -0.046),
  ('R39L', 'abundance fitness', 0.031),
  ('K38G', 'abundance fitness', -0.09),
  ('P12M', 'abundance fitness', -0.114),
  ('I17V', 'abundance fitness', -0.025),
  ('K19C', 'abundance fitness', -0.502),
  ('R15I', 'abundance fitness', -0.252),
  ('F6Y', 'abundance fitness', -0.295),
  ('K19N', 'abundance fitness', -0.144),
  ('F6L', 'abundance fitness', -0.157),
  ('K28R', 'abundance fitness', -0.188),
  ('L20H', 'abundance fitness', -0.269),
  ('S23I', 'abundance fitness', -0.432),
  ('D30H', 'abundance fitness', -0.124),
  ('H34K', 'abundance fitness', 0.022),
  ('L2P', 'abundance fitness', -0.532),
  ('H34Y', 'abundance fitness', -0.151);
